All figures here come from patent US10568950B1.

Molecular target: HLA-A*02 (Homo sapiens, UniProt P04439, D140Y/D185E/D98H/E176V/E277Q/G131W/G231S/I119V/I121R/I166T/I218V/N151K/N90K/P208A/P217A/Q86G/Q94H/R138H/R169H)
Experiment: MHC binding assay: UV-ligand exchange, beta2m ELISA (peptide exchange yield)
Settings: binding to HLA-A*02, β2m ELISA
outcome-measure: Peptide exchange (MHC class I binding score, peptide exchange yield)

Worked set:
{"substance": "10 (KTLDVFNIIL; listed as Homo sapiens) [compound 10]", "measured-value": "++ (20%-49% = ++)"}
{"substance": "18 (YVLNEEDLQKV; listed as Homo sapiens) [compound 18]", "measured-value": "+++ (50%-75% = +++)"}
{"substance": "59 (ALTKILAEL; listed as Homo sapiens) [compound 59]", "measured-value": "+++ (50%-75% = +++)"}
{"substance": "26 (KVDGVVIQL; listed as Homo sapiens) [compound 26]", "measured-value": "+++ (50%-75% = +++)"}
{"substance": "20 (ALDGHLYAI; listed as Homo sapiens) [compound 20]", "measured-value": "+++ (50%-75% = +++)"}
{"substance": "80 (TLDEYLTYL; listed as Homo sapiens) [compound 80]", "measured-value": "+++ (50%-75% = +++)"}
{"substance": "24 (FLWNGEDSAL; listed as Homo sapiens) [compound 24]", "measured-value": "+++ (50%-75% = +++)"}
{"substance": "60 (FLIDTSASM; listed as Homo sapiens) [compound 60]", "measured-value": "++ (20%-49% = ++)"}

So for 42 (VLSPFILTL; listed as Homo sapiens) [compound 42] , the logged Peptide exchange (MHC class I binding score, peptide exchange yield) turned out to be +++ (50%-75% = +++)
